PROCEDURE DETAILS: Cmax in rat at dog at 3 mg/kg, po
Type: ADME, organism-based, Canis lupus familiaris
Design: dose 3 mg/kg, route oral
TEST SETTINGS: in vivo
REPORTED METRIC: Cmax (nM)
Respond with the bare value in nM.

Using known records, supply Cmax for "COc1ccc(CNC(=O)c2cc(-c3cncc(C)c3)ncc2-c2nccs2)nc1OC" 2100

----------
PROCEDURE DETAILS: Plasma protein binding in Sprague-Dawley rat
Assay type: ADME, cell-free
TEST SETTINGS: read-out: PPB (converted)
REPORTED METRIC: fraction unbound

Using known records, supply fraction unbound for "COc1ccc(CNC(=O)c2cc(-c3cncc(C)c3)ncc2-c2nccs2)nc1OC" 0.164
